Listing of entries alongside the reported pKi.
measurement target: human factor Xa (Enzyme Research Laboratories, Inc.) (human, UniProt P00742 41-179; P00742 235-488, limits assumed)
Sequence (P00742 41-179 limits assumed, chain 1 of 2): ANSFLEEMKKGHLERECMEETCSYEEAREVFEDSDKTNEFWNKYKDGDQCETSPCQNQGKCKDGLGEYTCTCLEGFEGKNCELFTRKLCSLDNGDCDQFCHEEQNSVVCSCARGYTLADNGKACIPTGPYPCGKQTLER
Sequence (P00742 235-488 limits assumed, chain 2 of 2): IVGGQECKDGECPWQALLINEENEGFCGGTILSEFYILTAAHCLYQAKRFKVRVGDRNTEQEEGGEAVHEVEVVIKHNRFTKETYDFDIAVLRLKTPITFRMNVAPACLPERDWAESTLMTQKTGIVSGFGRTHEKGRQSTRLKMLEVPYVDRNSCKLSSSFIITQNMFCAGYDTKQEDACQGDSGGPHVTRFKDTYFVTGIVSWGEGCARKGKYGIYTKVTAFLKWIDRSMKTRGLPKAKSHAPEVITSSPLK
procedure text: chromogenic FXa inhibition
pKi: −log10 of the molar value. Non-standard residues stand in square brackets, D forms with d. No end group written: not given here. Phe(4-Cl) = N[C@@H](Cc1ccc(Cl)cc1)C(=O)O; Sar = CNCC(=O)O

Please review the entries below; each comes with its answer.
| binder | pKi |
| --- | --- |
| [Phe(4-Cl)]IRI[Sar]-NH2 (N-terminus assumed; SMILES CC[C@H](C)[C@H](NC(=O)[C@@H](N)Cc1ccc(Cl)cc1)C(=O)N[C@@H](CCCNC(=N)N)C(=O)N[C@H](C(=O)N(C)CC(N)=O)[C@@H](C)CC) [F(pCl)-I-R-I-Sar-NH2] | > 4.00 |
| XIRLP (N-(2-Et-nBu) on Y1; C-term NH2) [(2-Et-nBu)Y-I-R-L-P-NH2] | > 4.00 |

In the following, a different binder is considered.
Query string: May I ask what pKi has been recorded for [dF]IRIP-NH2 (N-terminus assumed; SMILES CC[C@H](C)[C@H](NC(=O)[C@H](N)Cc1ccccc1)C(=O)N[C@@H](CCCNC(=N)N)C(=O)N[C@H](C(=O)N1CCC[C@H]1C(N)=O)[C@@H](C)CC) [f-I-R-I-P-NH2] ?
Result string: > 4.00

This collection of values is drawn from patent US6759384.
